# System: HCT-116 cell line
# Assay protocol: Inhibition of cell growth, MTT tetrazolium salt assay
# Type: cell-based
# Conditions: HCT-116 cells, 0.25 μM compound
Readout kind: HCT-116 % Inhibition at 0.25 μM (%)
Numeric only. Scale: %

[[record]]
compound_string = "Nc1nc(Nc2ccc(C(=O)Nc3ccc(O)c(Cl)c3)cc2)sc1C(=O)c1c(F)cccc1F"
system_name = "HCT-116 cell line"
value = 73

[[record]]
compound_string = "CCOC(=O)N1CCC(NC(=O)c2ccc(Nc3nc(N)c(C(=O)c4c(F)cccc4F)s3)cc2)CC1"
system_name = "HCT-116 cell line"
value = 55

[[record]]
compound_string = "Nc1nc(Nc2ccc(C(=O)NCCc3ccc(Cl)cc3)cc2)sc1C(=O)c1c(F)cccc1F"
system_name = "HCT-116 cell line"
value = 30


Now consider a different compound.
get_value(item= C=C(C)CNC(=O)c1ccc(Nc2nc(N)c(C(=O)c3c(F)cccc3F)s2)cc1 , readout=HCT-116 % Inhibition at 0.25 μM) returns 50

---

# System name: CDK2/cyclin A (Homo sapiens, UniProt P24941)
# Construct: made in house; host or cells: CDK2: insect cells (baculovirus); cyclin A: E. coli
# Assay protocol: Inhibition of CDK2/cyclin A retinoblastoma kinase activity (Ki; % inhibition)
# Assay type: biochemical
# Conditions: at 0.03 μM
Readout kind: CDK2 % Inhibition at 0.03 μM (%)
// units = %; emit number, no label

Past entries and their recorded results:
[[record]]
molecule = "COc1ccccc1NC(=O)c1ccc(Nc2nc(N)c(C(=O)c3c(F)cccc3F)s2)cc1"
readout_kind = "CDK2 % Inhibition at 0.03 μM"
value = 8

[[record]]
molecule = "CN(C)C1CCN(C(=O)c2ccc(Nc3nc(N)c(C(=O)c4c(F)cccc4F)s3)cc2)C1 (stereo not shown) [Example G37]"
readout_kind = "CDK2 % Inhibition at 0.03 μM"
value = 11

[[record]]
molecule = "Nc1nc(Nc2ccc(C(=O)NC3CCN(Cc4ccccc4)CC3)cc2)sc1C(=O)c1c(F)cccc1F"
readout_kind = "CDK2 % Inhibition at 0.03 μM"
value = 20

[[record]]
molecule = "COCCCNC(=O)c1ccc(Nc2nc(N)c(C(=O)c3c(F)cccc3F)s2)cc1"
readout_kind = "CDK2 % Inhibition at 0.03 μM"
value = "−24"

[[record]]
molecule = "COc1ccccc1CNC(=O)c1ccc(Nc2nc(N)c(C(=O)c3c(F)cccc3F)s2)cc1"
readout_kind = "CDK2 % Inhibition at 0.03 μM"
value = 26

[[record]]
molecule = "Nc1nc(Nc2ccc(C(=O)Nc3cccc(Cl)c3)cc2)sc1C(=O)c1c(F)cccc1F"
readout_kind = "CDK2 % Inhibition at 0.03 μM"
value = 7

[[record]]
molecule = "Nc1nc(Nc2ccc(C(=O)N3CCSC3)cc2)sc1C(=O)c1c(F)cccc1F"
readout_kind = "CDK2 % Inhibition at 0.03 μM"
value = "−3"

[[record]]
molecule = "CCN1CC(NC(=O)c2ccc(Nc3nc(N)c(C(=O)c4c(F)cccc4F)s3)cc2)CN1CC"
readout_kind = "CDK2 % Inhibition at 0.03 μM"
value = 15


Here is the next item to consider.
Sure, the documented CDK2 % Inhibition at 0.03 μM for Nc1nc(Nc2ccc(C(=O)NC3CC3)cc2)sc1C(=O)c1c(F)cccc1F is −5

---

# System name: CDK2/cyclin A (Homo sapiens, UniProt P24941)
# Construct: cyclin A: E. coli
# Assay protocol: Inhibition of CDK2/cyclin A retinoblastoma kinase activity (Ki; % inhibition)
# Conditions: apparent Ki, CDK2/cyclin A, Rb substrate
Counter-ions that a name gives are not always drawn.
Readout kind: pKi
Scale explanation: pKi corresponds to minus log10 of a concentration expressed in moles per litre.

[[record]]
compound = "CN1CCCC[C@H]1CNC(=O)c1ccc(Nc2nc(N)c(C(=O)c3c(F)cccc3F)s2)cc1 [Example A43]"
readout_kind = "pKi"
value = 6.96

[[record]]
compound = "CC1(C)CCC(CNC(=O)c2ccc(Nc3nc(N)c(C(=O)c4c(F)cccc4F)s3)cc2)N1 (centres unmarked) [Example A48, Hydrochloride Salt]"
readout_kind = "pKi"
value = 7.26

[[record]]
compound = "Nc1nc(Nc2ccc(C(=O)NCCNc3ccccc3)c(O)c2)sc1C(=O)c1c(F)cccc1F [Example D1]"
readout_kind = "pKi"
value = 8.03

[[record]]
compound = "C[C@@H]1CN(CCNC(=O)c2ccc(Nc3nc(N)c(C(=O)c4c(F)cccc4F)s3)cc2)C[C@H](C)N1 [Example A57]"
readout_kind = "pKi"
value = 7.27

[[record]]
compound = "Cn1cncc1CNC(=O)c1ccc(Nc2nc(N)c(C(=O)c3c(F)cccc3F)s2)cc1 [Example A64]"
readout_kind = "pKi"
value = 7.72

[[record]]
compound = "Nc1nc(Nc2ccc(C(=O)Nc3ccccc3)cc2)sc1C(=O)c1c(F)cccc1F [Example A9]"
readout_kind = "pKi"
value = 7.57

[[record]]
compound = "COc1ccc(C)c(NC(=O)c2ccc(Nc3nc(N)c(C(=O)c4c(F)cccc4F)s3)cc2)c1 [Example A19]"
readout_kind = "pKi"
value = 7.19


Now examine the next entry.
The recorded pKi for Cc1ccc(CNC(=O)c2ccc(Nc3nc(N)c(C(=O)c4c(F)cccc4F)s3)cc2)o1 [Example A6] is 8.12

---

# Test system: HCT-116 cell line
# Assay protocol: Inhibition of cell growth, MTT tetrazolium salt assay
# Assay type: cell-based
# Conditions: HCT-116 cells, 0.25 μM compound
Readout kind: HCT-116 % Inhibition at 0.25 μM (%)
Your answer is read as %, so omit the unit and give the number.

Reference set, count: 6
[[record]]
compound = "N#CCCN(Cc1cccnc1)C(=O)c1ccc(Nc2nc(N)c(C(=O)c3c(F)cccc3F)s2)cc1 [Example G316]"
readout_kind = "HCT-116 % Inhibition at 0.25 μM"
result_units = "%"
value = 56

[[record]]
compound = "Nc1nc(Nc2ccc(C(=O)Nc3ccccc3F)cc2)sc1C(=O)c1c(F)cccc1F [Example G235]"
readout_kind = "HCT-116 % Inhibition at 0.25 μM"
result_units = "%"
value = 51

[[record]]
compound = "Cc1ccc(CNC(=O)c2ccc(Nc3nc(N)c(C(=O)c4c(F)cccc4F)s3)cc2)cc1C [Example G338]"
readout_kind = "HCT-116 % Inhibition at 0.25 μM"
result_units = "%"
value = 54

[[record]]
compound = "CC(=O)N(C)C1CCN(C(=O)c2ccc(Nc3nc(N)c(C(=O)c4c(F)cccc4F)s3)cc2)C1 (centres unmarked) [Example G348]"
readout_kind = "HCT-116 % Inhibition at 0.25 μM"
result_units = "%"
value = 51

[[record]]
compound = "CCCCCNC(=O)c1ccc(Nc2nc(N)c(C(=O)c3c(F)cccc3F)s2)cc1 [Example G200]"
readout_kind = "HCT-116 % Inhibition at 0.25 μM"
result_units = "%"
value = 50

[[record]]
compound = "Nc1nc(Nc2ccc(C(=O)Nc3ccc(C(F)(F)F)cc3)cc2)sc1C(=O)c1c(F)cccc1F [Example G368]"
readout_kind = "HCT-116 % Inhibition at 0.25 μM"
result_units = "%"
value = 50


Record CCN(CCNC(=O)c1ccc(Nc2nc(N)c(C(=O)c3c(F)cccc3F)s2)cc1)c1cccc(C)c1 [Example G226] . Reported HCT-116 % Inhibition at 0.25 μM: 56

Quick note, HCT-116 % Inhibition at 0.25 μM for Nc1nc(Nc2ccc(C(=O)N(CCCO)Cc3ccccn3)cc2)sc1C(=O)c1c(F)cccc1F [Example G243] landed at 40

---

This section presents compounds with their documented HCT-116 % Inhibition at 0.25 μM values.
# Tested on: HCT-116 cell line
# Assay protocol: Inhibition of cell growth, MTT tetrazolium salt assay
# Format: cell-based
# Conditions: HCT-116 cells, 0.25 μM compound
Give a bare numeral; the unit % is implied.

[[record]]
compound = "CCN(CC)CCCC(C)NC(=O)c1ccc(Nc2nc(N)c(C(=O)c3c(F)cccc3F)s2)cc1 (stereo not shown) [Example G239]"
value = 50

[[record]]
compound = "Nc1nc(Nc2ccc(C(=O)NCc3ccc(OC(F)(F)F)cc3)cc2)sc1C(=O)c1c(F)cccc1F [Example G208]"
value = 56

[[record]]
compound = "Nc1nc(Nc2ccc(C(=O)N3CCN(Cc4ccccc4)CC3)cc2)sc1C(=O)c1c(F)cccc1F [Example G217]"
value = 51


Next compound, HCT-116 % Inhibition at 0.25 μM to be filled in.
HCT-116 % Inhibition at 0.25 μM on HCT-116 cell line for COc1cc(NC(=O)c2ccc(Nc3nc(N)c(C(=O)c4c(F)cccc4F)s3)cc2)cc(OC)c1OC [Example G295] is 78

---

# Test system: HCT-116 cell line
# Assay protocol: Inhibition of cell growth, MTT tetrazolium salt assay
# Type: cell-based
# Conditions: HCT-116 cells, 0.1 μM compound
// values below are reported HCT-116 % Inhibition at 0.1 μM
Please state the figure in %; there is no need to write the unit.

[[record]]
compound_string = "Nc1nc(Nc2ccc(C(=O)Nc3cccc(OC(F)(F)F)c3)cc2)sc1C(=O)c1c(F)cccc1F"
system_name = "HCT-116 cell line"
readout_kind = "HCT-116 % Inhibition at 0.1 μM"
result_units = "%"
value = 0

[[record]]
compound_string = "C#CCN(C)C(=O)c1ccc(Nc2nc(N)c(C(=O)c3c(F)cccc3F)s2)cc1"
system_name = "HCT-116 cell line"
readout_kind = "HCT-116 % Inhibition at 0.1 μM"
result_units = "%"
value = 1

[[record]]
compound_string = "Nc1nc(Nc2ccc(C(=O)NCc3ccc(Cl)cc3)cc2)sc1C(=O)c1c(F)cccc1F"
system_name = "HCT-116 cell line"
readout_kind = "HCT-116 % Inhibition at 0.1 μM"
result_units = "%"
value = 41

[[record]]
compound_string = "Cc1ccc(CNC(=O)c2ccc(Nc3nc(N)c(C(=O)c4c(F)cccc4F)s3)cc2)o1"
system_name = "HCT-116 cell line"
readout_kind = "HCT-116 % Inhibition at 0.1 μM"
result_units = "%"
value = 31

[[record]]
compound_string = "CSc1ccc(NC(=O)c2ccc(Nc3nc(N)c(C(=O)c4c(F)cccc4F)s3)cc2)cc1"
system_name = "HCT-116 cell line"
readout_kind = "HCT-116 % Inhibition at 0.1 μM"
result_units = "%"
value = 25

[[record]]
compound_string = "Nc1nc(Nc2ccc(C(=O)Nc3cccc(C(F)(F)F)c3)cc2)sc1C(=O)c1c(F)cccc1F"
system_name = "HCT-116 cell line"
readout_kind = "HCT-116 % Inhibition at 0.1 μM"
result_units = "%"
value = 27


COCCN1CCN(C(=O)c2ccc(Nc3nc(N)c(C(=O)c4c(F)cccc4F)s3)cc2)CC1 has a reported HCT-116 % Inhibition at 0.1 μM of 9

Where these numbers come from: patent US6720346B2
